Source of measurements: PubChem BioAssay AID504652

- Assayed System: D(1A) dopamine receptor (Homo sapiens)
- Method Summary: Antagonist of Human D 1 Dopamine Receptor: qHTS
- Test Parameters: HEK293 TREx D1 cells, calcium flux, dopamine EC80; at 10 µM
The campaign covered roughly 360,000 compounds. About 11,000 (3.1%) were called active. No stated cut-off is given here; in the data, active means activity change below about -30%; inactive means the rest. Many of the other results were omitted from the sample, so actives are more common in it than they were.
Outcome codes: active, inactive

Molecule: CNc1ccc(NC(C)=O)cc1[N+](=O)[O-]
Assayed System: D(1A) dopamine receptor (Homo sapiens)
Group: inactive
//
Molecule: CCc1nn(CC(=O)NCC(C)c2ccccc2)c(=O)c2cc3occc3n12 (configuration not stated)
Assayed System: D(1A) dopamine receptor (Homo sapiens)
Group: active
//
Molecule: O=C(NCCCN1CCN(c2cccc(Cl)c2)CC1)c1nnc(Cc2ccc(F)cc2Cl)o1
Assayed System: D(1A) dopamine receptor (Homo sapiens)
Group: active
//
Molecule: CCCCN1CC(c2nc3ccccc3n2CCCCOc2ccc(C)cc2C)CC1=O (configuration not stated)
Assayed System: D(1A) dopamine receptor (Homo sapiens)
Group: inactive
//
Molecule: COc1ccc(CNC(=O)c2ccc(NC(=O)N3CC4CCCN4c4ccccc43)cc2)cc1 (configuration not stated)
Assayed System: D(1A) dopamine receptor (Homo sapiens)
Group: inactive
//
Molecule: COc1ccc(S(=O)(=O)N2CCOCC2)c(C)c1C
Assayed System: D(1A) dopamine receptor (Homo sapiens)
Group: active
//
Molecule: O=C(Nc1ccc(OC(F)(F)F)cc1)C1CCCN(S(=O)(=O)c2ccc(Br)s2)C1 (configuration not stated)
Assayed System: D(1A) dopamine receptor (Homo sapiens)
Group: inactive
//
Molecule: O=C(COc1ccc(Cl)cc1[N+](=O)[O-])N1CCCCC1
Assayed System: D(1A) dopamine receptor (Homo sapiens)
Group: inactive
//
Molecule: O=C(O)c1ccc(Nc2nc(-c3ccccc3)c3cc(Br)ccc3n2)cc1
Assayed System: D(1A) dopamine receptor (Homo sapiens)
Group: inactive
//
Molecule: O=C(Nc1cc(C(F)(F)F)ccc1Cl)c1cc2nc(-c3ccc4c(c3)OCO4)cc(C(F)(F)F)n2n1
Assayed System: D(1A) dopamine receptor (Homo sapiens)
Group: inactive
//
Molecule: Cc1nnc(NC(=O)CSc2nc3c([nH]c4ccccc43)c(=O)n2-c2cccc(Cl)c2)s1
Assayed System: D(1A) dopamine receptor (Homo sapiens)
Group: inactive
//
Molecule: CCOc1ccccc1NC(=O)CN1CCCN(Cc2cccc(Cl)c2)S1(=O)=O
Assayed System: D(1A) dopamine receptor (Homo sapiens)
Group: inactive
//
Molecule: CCc1ccc(NC(=O)c2cc(S(=O)(=O)NC3CCCCCC3)ccc2F)cc1
Assayed System: D(1A) dopamine receptor (Homo sapiens)
Group: inactive
//
Molecule: CCc1ccc(NC(=O)CCS(=O)(=O)c2cc3c(cc2Cl)NC(=O)CO3)cc1
Assayed System: D(1A) dopamine receptor (Homo sapiens)
Group: inactive
//
Molecule: NC(=O)c1ccc(Nc2ccc3c(c2)CCC3)c([N+](=O)[O-])c1
Assayed System: D(1A) dopamine receptor (Homo sapiens)
Group: active
//
Molecule: Cc1cc2c(s1)c1cnn(Cc3cc(F)c(Cl)cc3Cl)c(=O)c1n2C
Assayed System: D(1A) dopamine receptor (Homo sapiens)
Group: inactive
//
Molecule: Cc1nnc(C)n1-c1ccc(C(=O)Nc2cccc(Br)c2)cc1
Assayed System: D(1A) dopamine receptor (Homo sapiens)
Group: inactive
//
Molecule: COc1ccc(S(=O)(=O)NC(C)C(=O)N2CCCCCC2)cc1 (configuration not stated)
Assayed System: D(1A) dopamine receptor (Homo sapiens)
Group: inactive
//
Molecule: Cc1nnc(N2CCC(C(=O)Nc3ccc(F)cc3)CC2)c2nn(-c3ccc(Cl)cc3)c(C)c12
Assayed System: D(1A) dopamine receptor (Homo sapiens)
Group: inactive
//
Molecule: CC(=O)Nc1ccc(S(=O)(=O)N2CCCC2C(=O)O)cc1 (configuration not stated)
Assayed System: D(1A) dopamine receptor (Homo sapiens)
Group: inactive
//
Molecule: COc1ccc(-c2nn3c(-c4ccc(OC)cc4)nnc3c3ccccc23)cc1
Assayed System: D(1A) dopamine receptor (Homo sapiens)
Group: inactive
//
Molecule: COc1cccc(C(O)Cc2nc3ccccc3n2C)c1OC (configuration not stated)
Assayed System: D(1A) dopamine receptor (Homo sapiens)
Group: inactive
//
Molecule: COC(=O)C1=CN(c2ccc(F)c(F)c2)C=C(C(=O)OC)C1c1ccc([N+](=O)[O-])cc1
Assayed System: D(1A) dopamine receptor (Homo sapiens)
Group: inactive
//
Molecule: COc1cc(C)c(S(=O)(=O)N2CCOCC2)c(C)c1C
Assayed System: D(1A) dopamine receptor (Homo sapiens)
Group: inactive
//
Molecule: Cn1c(COc2ccccc2C(C)(C)C)nc2ccccc21
Assayed System: D(1A) dopamine receptor (Homo sapiens)
Group: active
//
Molecule: COc1ccc(-n2nnc(-c3nsc(NC(=O)c4ccc(C)c(C)c4)n3)c2C)cc1Cl
Assayed System: D(1A) dopamine receptor (Homo sapiens)
Group: inactive
//
Molecule: CCOc1cc2[nH]c(=O)n(Cc3ccc(C(=O)NCCN(CC)CC)cc3)c(=O)c2cc1OCC
Assayed System: D(1A) dopamine receptor (Homo sapiens)
Group: inactive
//
Molecule: CCOC(=O)c1ccc(NNC(C)=O)c([N+](=O)[O-])c1
Assayed System: D(1A) dopamine receptor (Homo sapiens)
Group: inactive
//
Molecule: CCOc1ccc(OCC)c(NC(=O)c2c(C)nn(-c3ccccc3)c2-n2cccc2)c1
Assayed System: D(1A) dopamine receptor (Homo sapiens)
Group: inactive
//
Molecule: CC1CCN(c2nc3ccc(C(=O)N4CCN(c5ccccc5)CC4)cc3s2)CC1
Assayed System: D(1A) dopamine receptor (Homo sapiens)
Group: inactive
//
Molecule: COc1ccc(-c2nnc(SCC(=O)Nc3ccc(C(C)C)cc3)nc2-c2ccc(OC)c(OC)c2)cc1OC
Assayed System: D(1A) dopamine receptor (Homo sapiens)
Group: inactive
//
Molecule: O=C(c1ccc(Cl)c(Cl)c1)N1CCCC1
Assayed System: D(1A) dopamine receptor (Homo sapiens)
Group: inactive
//
Molecule: CCn1cc2nc(SCc3cccc(F)c3)n(CCc3ccccc3)c(=O)c2n1
Assayed System: D(1A) dopamine receptor (Homo sapiens)
Group: inactive
//
Molecule: COc1ccc(C(F)(F)F)cc1NC(=O)c1sc2nc(-c3cccs3)ccc2c1N
Assayed System: D(1A) dopamine receptor (Homo sapiens)
Group: inactive
//
Molecule: Cc1ccc(Nc2ccc(C(N)=O)cc2[N+](=O)[O-])cc1
Assayed System: D(1A) dopamine receptor (Homo sapiens)
Group: active
//
Molecule: COc1ccccc1CNc1nc2ccc(Cl)cc2n2cnnc12
Assayed System: D(1A) dopamine receptor (Homo sapiens)
Group: inactive
//
Molecule: COC(=O)c1ccc(NC(=O)c2cccc3c2C(=O)N(C2CCCCC2)C3)cc1
Assayed System: D(1A) dopamine receptor (Homo sapiens)
Group: inactive
//
Molecule: COc1ccc(N2CCN(CCNC(=O)c3nnc(Cc4c(F)cccc4Cl)o3)CC2)cc1
Assayed System: D(1A) dopamine receptor (Homo sapiens)
Group: inactive
//
Molecule: CCCN1CCN(CCCNC(=O)Cn2nc(CC)n3c(cc4occc43)c2=O)CC1
Assayed System: D(1A) dopamine receptor (Homo sapiens)
Group: inactive
//
Molecule: COC(=O)C1=CN(C)C=C(C(=O)OC)C1c1ccc(Cl)cc1Cl
Assayed System: D(1A) dopamine receptor (Homo sapiens)
Group: active
//
Molecule: O=S(=O)(Nc1cccc2cccnc12)c1cccc2cccnc12
Assayed System: D(1A) dopamine receptor (Homo sapiens)
Group: inactive
//
Molecule: O=C(c1ccc(Oc2ccc(Cl)cc2)c([N+](=O)[O-])c1)N1CCCC1
Assayed System: D(1A) dopamine receptor (Homo sapiens)
Group: active
